# measured-target: SMARCA2 (Homo sapiens)
# Sequence (P51531 whole entry): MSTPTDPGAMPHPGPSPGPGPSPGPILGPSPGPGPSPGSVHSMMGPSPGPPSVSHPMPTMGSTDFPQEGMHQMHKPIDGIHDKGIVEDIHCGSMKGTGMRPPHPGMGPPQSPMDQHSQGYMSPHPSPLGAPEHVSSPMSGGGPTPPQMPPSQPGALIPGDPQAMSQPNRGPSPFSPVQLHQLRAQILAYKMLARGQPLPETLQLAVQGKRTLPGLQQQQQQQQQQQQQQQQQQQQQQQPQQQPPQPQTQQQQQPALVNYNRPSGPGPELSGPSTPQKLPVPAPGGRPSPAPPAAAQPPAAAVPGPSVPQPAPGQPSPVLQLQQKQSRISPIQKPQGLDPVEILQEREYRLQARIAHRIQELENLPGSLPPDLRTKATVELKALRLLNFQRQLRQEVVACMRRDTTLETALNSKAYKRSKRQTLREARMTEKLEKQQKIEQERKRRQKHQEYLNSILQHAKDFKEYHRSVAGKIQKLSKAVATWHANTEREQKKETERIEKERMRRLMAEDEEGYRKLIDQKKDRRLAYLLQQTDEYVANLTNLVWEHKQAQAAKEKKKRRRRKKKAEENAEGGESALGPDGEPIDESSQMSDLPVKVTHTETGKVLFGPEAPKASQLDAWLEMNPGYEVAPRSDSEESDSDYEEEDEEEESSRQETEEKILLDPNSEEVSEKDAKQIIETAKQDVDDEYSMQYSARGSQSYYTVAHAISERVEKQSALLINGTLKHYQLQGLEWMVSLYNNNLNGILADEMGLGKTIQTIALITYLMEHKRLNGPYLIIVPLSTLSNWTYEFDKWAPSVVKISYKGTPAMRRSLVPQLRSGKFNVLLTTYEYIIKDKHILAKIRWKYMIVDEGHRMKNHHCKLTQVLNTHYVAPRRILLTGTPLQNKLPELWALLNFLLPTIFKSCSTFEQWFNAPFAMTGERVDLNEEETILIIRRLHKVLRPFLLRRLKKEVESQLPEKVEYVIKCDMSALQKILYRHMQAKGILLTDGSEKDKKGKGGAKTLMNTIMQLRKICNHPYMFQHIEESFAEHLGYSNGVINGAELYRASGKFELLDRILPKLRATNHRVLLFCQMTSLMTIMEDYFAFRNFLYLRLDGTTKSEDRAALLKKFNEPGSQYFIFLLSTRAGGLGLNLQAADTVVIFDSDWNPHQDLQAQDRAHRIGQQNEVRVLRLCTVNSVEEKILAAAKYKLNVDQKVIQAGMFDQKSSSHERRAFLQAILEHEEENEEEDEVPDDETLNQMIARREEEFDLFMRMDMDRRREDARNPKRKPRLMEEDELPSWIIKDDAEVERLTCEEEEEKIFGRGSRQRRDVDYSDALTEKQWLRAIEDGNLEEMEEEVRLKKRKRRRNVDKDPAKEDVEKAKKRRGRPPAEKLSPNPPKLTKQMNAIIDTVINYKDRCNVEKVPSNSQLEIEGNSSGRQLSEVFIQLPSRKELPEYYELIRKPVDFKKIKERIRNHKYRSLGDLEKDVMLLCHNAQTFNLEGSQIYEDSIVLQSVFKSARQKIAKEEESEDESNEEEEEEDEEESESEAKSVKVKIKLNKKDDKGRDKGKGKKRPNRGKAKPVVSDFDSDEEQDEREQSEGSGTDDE
# assay-explanation: MSD SMARCA2 degradation in NCI-H1299 cell line (24 h)
# Assay type: cell-based
# Parameters: HC: NCI-H1299 cells treated with DMSO; host or cells: NCI-H1299
# measurement-parameters: NCI-H1299, NCI-H1299 cells
Listed next: entries and their corresponding Dmax.

Example compounds with recorded Dmax:
CC(C)(CCOCCCc1cccc2c1oc(=O)n2C1CCC(=O)NC1=O)NCc1ccc(N2CCN(c3cc(-c4ccccc4O)nnc3N)CC2)cc1 (centres unmarked)    > 90%
NCC#Cc1cnc(N2C3CCC2CN(c2cc(-c4ccccc4O)nnc2N)C3)nc1    < 50%

Lab book: Dmax of Cn1c(=O)n(C2CCC(=O)NC2=O)c2ccc(C#CCCNC(=O)Cc3cnc(N4C5CCC4CN(c4cc(-c6ccccc6O)nnc4N)C5)nc3)cc21 (centres unmarked) noted as < 50%

Per the record, Cn1c(=O)n(C2CCC(=O)NC2=O)c2ccc(CCCN3CCN(c4cnc(N5C6CCC5CN(c5cc(-c7ccccc7O)nnc5N)C6)nc4)CC3)cc21 (centres unmarked) has Dmax of > 90%

Per the record, Cn1c(=O)n(C2CCC(=O)NC2=O)c2ccc(CCCCOCCCCNCc3ccc(N4CCN(c5cc(-c6ccccc6O)nnc5N)CC4)cc3)cc21 (centres unmarked) has Dmax of > 90%

Entry Cn1c(=O)n(C2CCC(=O)NC2=O)c2ccc(CCCOCCOCCN3CCN(Cc4ccc(-c5cc(-c6ccccc6O)nnc5N)cc4)CC3)cc21 (centres unmarked) ; Dmax = 50 to 70%

# Dmax of Cn1c(=O)n(C2CCC(=O)NC2=O)c2cccc(C#CCCc3cn(Cc4cccc(N5C[C@H]6C[C@@H]5CN6/C=C/C(=O)c5ccccc5O)n4)nn3)c21 (some centres unmarked) = 70 to 90%

According to the records, this compound Cn1c(=O)n(C2CCC(=O)NC2=O)c2cccc(CCCCCCCCN3CCC(Cn4cc(-c5cc(-c6ccccc6O)nnc5N)cn4)CC3)c21 (centres unmarked) displays Dmax of > 90%

Lab note: measured Dmax of Cn1c(=O)n(C2CCC(=O)NC2=O)c2ccc(C#CCCCc3cn(Cc4cccc(N5C[C@H]6C[C@@H]5CN6/C=C/C(=O)c5ccccc5O)n4)nn3)cc21 (some centres unmarked) was < 50%

###

# measured-target: SMARCA4 (Homo sapiens)
# Construct: SMARCA2 and SMARCA4 protein degradation in MV4-11 cells; endogenous in cells; host or cells: MV4-11
# Sequence (P51532 whole entry): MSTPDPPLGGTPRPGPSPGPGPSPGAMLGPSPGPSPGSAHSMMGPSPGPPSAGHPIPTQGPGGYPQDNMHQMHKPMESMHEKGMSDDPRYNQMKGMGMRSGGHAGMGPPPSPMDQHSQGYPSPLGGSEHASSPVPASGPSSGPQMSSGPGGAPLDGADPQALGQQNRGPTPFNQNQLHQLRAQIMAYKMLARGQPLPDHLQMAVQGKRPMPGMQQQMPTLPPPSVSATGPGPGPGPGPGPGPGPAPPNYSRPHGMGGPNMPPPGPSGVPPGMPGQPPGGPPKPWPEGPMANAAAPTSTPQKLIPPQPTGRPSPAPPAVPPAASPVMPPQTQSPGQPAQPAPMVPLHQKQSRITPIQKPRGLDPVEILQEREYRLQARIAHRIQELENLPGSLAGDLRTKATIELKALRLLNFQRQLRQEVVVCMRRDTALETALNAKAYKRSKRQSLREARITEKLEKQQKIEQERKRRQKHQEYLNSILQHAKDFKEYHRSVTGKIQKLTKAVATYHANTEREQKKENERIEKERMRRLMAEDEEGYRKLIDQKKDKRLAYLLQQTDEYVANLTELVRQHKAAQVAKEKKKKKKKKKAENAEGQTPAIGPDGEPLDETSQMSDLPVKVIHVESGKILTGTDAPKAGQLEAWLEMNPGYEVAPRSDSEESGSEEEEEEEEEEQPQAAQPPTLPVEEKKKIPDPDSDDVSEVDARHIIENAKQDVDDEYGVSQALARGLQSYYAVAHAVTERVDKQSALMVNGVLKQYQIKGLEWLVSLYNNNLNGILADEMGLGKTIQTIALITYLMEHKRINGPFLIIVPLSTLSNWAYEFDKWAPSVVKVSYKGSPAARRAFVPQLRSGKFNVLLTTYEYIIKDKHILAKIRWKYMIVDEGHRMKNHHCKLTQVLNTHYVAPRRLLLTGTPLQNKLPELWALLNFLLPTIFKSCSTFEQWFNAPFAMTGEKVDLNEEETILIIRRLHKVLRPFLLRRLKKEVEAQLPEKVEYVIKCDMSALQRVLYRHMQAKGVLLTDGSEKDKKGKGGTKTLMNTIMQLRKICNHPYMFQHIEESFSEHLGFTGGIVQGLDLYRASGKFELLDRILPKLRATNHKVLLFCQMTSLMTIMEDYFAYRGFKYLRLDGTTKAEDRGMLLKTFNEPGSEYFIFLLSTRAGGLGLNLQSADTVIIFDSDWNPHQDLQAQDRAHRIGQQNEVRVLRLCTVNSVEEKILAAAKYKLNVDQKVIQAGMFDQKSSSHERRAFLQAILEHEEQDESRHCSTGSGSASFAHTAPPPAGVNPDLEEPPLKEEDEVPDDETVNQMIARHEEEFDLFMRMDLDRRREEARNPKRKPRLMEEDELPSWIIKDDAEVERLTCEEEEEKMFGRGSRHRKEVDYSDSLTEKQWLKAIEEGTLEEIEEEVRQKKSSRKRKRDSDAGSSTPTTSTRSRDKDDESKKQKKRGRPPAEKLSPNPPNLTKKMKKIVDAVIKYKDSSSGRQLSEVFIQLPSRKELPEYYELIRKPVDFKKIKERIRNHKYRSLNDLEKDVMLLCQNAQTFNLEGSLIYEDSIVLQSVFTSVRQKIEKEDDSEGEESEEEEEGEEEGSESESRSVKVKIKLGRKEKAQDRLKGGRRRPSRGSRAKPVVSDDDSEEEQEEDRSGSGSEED
# assay-explanation: SMARCA4 Western blot MV4-11 degradation
# Assay type: cell-based
# measurement-parameters: MV4-11, MV4-11 cells, 24 h, read-out: SMARCA4 WB MV411 degradation 24 h: Average Dmax %
measured-parameter: Dmax

# count of solved cases: 5
Cc1ncsc1-c1ccc(CNC(=O)[C@@H]2C[C@@H](O)CN2C(=O)[C@@H](NC(=O)[C@H]2CC[C@H](c3cnc(N4C5CCC4CN(c4cc(-c6ccccc6O)nnc4N)C5)nc3)CC2)C(C)(C)C)c(OC(F)(F)F)c1    > 90%
Cc1ncsc1-c1ccc(CNC(=O)[C@@H]2C[C@@H](O)CN2C(=O)[C@@H](NC(=O)COCCCc2cnc(N3C4CCC3CN(c3cc(-c5ccccc5O)nnc3N)C4)nc2)C(C)(C)C)cc1    > 90%
Cc1cc(CC(=O)N[C@H](C(=O)N2C[C@H](O)C[C@H]2C(=O)NCc2ccc(-c3scnc3C)cc2)C(C)(C)C)ccc1-c1cnc(N2C3CCC2CN(c2cc(-c4ccccc4O)nnc2N)C3)nc1    > 90%
Cn1c(=O)n(C2CCC(=O)NC2=O)c2ccc(CCCCCCCc3nccc(N4C5CCC4CN(c4cc(-c6ccccc6O)nnc4N)C5)n3)cc21 (stereo not shown)    50 to 70%
Cc1ncsc1-c1ccc(CNC(=O)[C@@H]2C[C@@H](O)CN2C(=O)[C@@H](NC(=O)C2CCC(CN3CCC(n4cc(-c5cc(-c6ccccc6O)nnc5N)cn4)CC3)CC2)C(C)(C)C)cc1 (stereo partly shown)    < 50%

The recorded Dmax for entry Cc1ncsc1-c1ccc(CNC(=O)[C@@H]2C[C@@H](O)CN2C(=O)[C@@H](NC(=O)[C@H]2CC[C@@H](CN3CCC(n4cc(-c5cc(-c6ccccc6O)nnc5N)cn4)CC3)CC2)C(C)(C)C)cc1 equals < 50%

Kindly note the recorded Dmax for Cc1ncsc1-c1ccc(CNC(=O)[C@@H]2C[C@@H](O)CN2C(=O)[C@@H](NC(=O)C23CCC(CN4CCC(c5cnc(N6C7CCC6CN(c6cc(-c8ccccc8O)nnc6N)C7)nc5)CC4)(CC2)CC3)C(C)(C)C)cc1 , which is 70 to 90%

Per the records, this compound ( Cc1ncsc1-c1ccc(CNC(=O)[C@@H]2C[C@@H](O)CN2C(=O)C(NC(=O)C[C@H]2CC[C@@H](N3CCC(c4cnc(N5C6CCC5CN(c5cc(-c7ccccc7O)nnc5N)C6)nc4)CC3)CC2)C(C)(C)C)cc1 (stereo partly shown) ) has Dmax equal to 70 to 90%

Briefly, Dmax measured for Cc1ncsc1-c1ccc(CNC(=O)[C@@H]2C[C@@H](O)CN2C(=O)[C@@H](NC(=O)C2CCN(Cc3cnc(N4C5CCC4CN(c4cc(-c6ccccc6O)nnc4N)C5)nc3)CC2)C(C)(C)C)cc1 : > 90%

Dmax in this record for Cn1c(=O)n(C2CCC(=O)NC2=O)c2ccc(CCCN3CCN(c4cnc(N5C6CCC5CN(c5cc(-c7ccccc7O)nnc5N)C6)nc4)CC3)cc21 (stereo not shown) : > 90%
